Molecular target: NAMPT (human, recombinant, C-terminally His-tagged) (Homo sapiens)
Test: Time-Resolved Fluorescence Resonance Energy Transfer (TR-FRET) Binding Assay of NAMPT
Details: without substrates; 6.8 nM NAMPT, 200 nM probe, 3 hours equilibration
measurementKind: IC50 (nM)

INSERT INTO measurements (compound, measurementkind, result) VALUES
  ('O=C(NCc1ccn2ccnc2c1)c1ccc(O[C@H]2CCN(C(=O)c3ccccc3)C2)cc1 [Example 353]', 'IC50', 3170),
  ('O=C(NCc1ccn2ccnc2c1)c1ccc(C2CCN(C(=O)CC3CCOCC3)CC2)cc1 [Example 236]', 'IC50', 604),
  ('O=C(Nc1ccc(C(=O)NCCCN2CCCC2=O)cc1)Nc1ccc2nccn2c1 [Example 21]', 'IC50', 433),
  ('O=C(NCc1ccn2ccnc2c1)c1ccc(C2CCN(C(=O)c3ccccc3OC(F)(F)F)CC2)cc1 [Example 706]', 'IC50', 84.1),
  ('O=C(NCc1ccn2ccnc2c1)c1ccc(C2CCN(C(=O)c3cccc(Cl)c3)C2)s1 (centres unmarked) [Example 779]', 'IC50', 14.2);

A: O=C(NCc1ccn2ccnc2c1)Nc1ccc(C2CN(C(=O)[C@@H]3CCCO3)C2)cc1 [Example 459]
B: O=C(NCc1ccn2ccnc2c1)c1ccc(C2CCN(C(=O)c3ccccc3Cl)CC2)cc1 [Example 699]
Between these two entries, A and B , state which has the higher IC50. Your answer should be the label of the entry you select. A

A: CC(C)(C)C(=O)N1CCC(c2ccc(C(=O)NCc3ccn4ccnc4c3)cc2)C1 (centres unmarked) [Example 585]
B: O=C(NCc1ccc2nccn2c1)c1ccc(C2=CCN(C(=O)C3CCOCC3)CC2)cc1 [Example 101]
C: O=C(NCc1ccn2ccnc2c1)c1ccc(-c2cnn(CC3CCC3)c2)o1 [Example 481]
D: CC(C)(C)OC(=O)N1CCC(c2ccc(C(=O)NCc3ccn4ccnc4c3)cc2)CC1 [Example 217]
Could you please sort these 4 entries by IC50 from high to low? Return value: ordered labels per request. A, B, D, C

1: O=C(NCc1ccn2ccnc2c1)Nc1ccc(O[C@@H]2CCN(C(=O)CC3CCOCC3)C2)cc1 [Example 338]
2: O=C(CC1CCCC1)Nc1ccc(CNC(=O)c2ccc3nccn3c2)cc1 [Example 84]
Input pair: 1 , 2 . Output: entry with lower IC50. # respond with the chosen item's label 1
(1: 609 nM, 2: 1670 nM)

1: O=C(NCc1ccn2ccnc2c1)c1ccc(C2CCN(C(=O)CCC(F)(F)F)CC2)s1 [Example 574]
2: O=C(NCc1ccn2ccnc2c1)c1ccc(C2(O)CN(C(=O)CC3CCOCC3)C2)s1 [Example 406]
Given the listed records, identify the one among 1 and 2 with higher IC50. Returns: label corresponding to the selected item. 2
(2: 1140 nM, 1: 97.5 nM)

* * *

Recorded below: IC50, system UniProt:P43490.
measurementKind: IC50 (pM)

INSERT INTO assay_data (compound, measurementkind, valueunit, result) VALUES
  ('CC(C)C(C)C(=O)N1CCC(c2ccc(C(=O)NCc3ccn4ccnc4c3)cc2)C1 (stereo not shown)', 'IC50', 'pM', 790);

a: O=C(NCc1ccn2ccnc2c1)c1ccc(N2C[C@H](O)CC2=O)s1
b: O=C(NCCCCC1CCN(C(=O)c2ccccc2)CC1)Nc1ccn2ccnc2c1
c: O=C(NCc1ccn2ccnc2c1)c1ccc(C2CCN(C(=O)c3ccccc3F)C2)s1 (stereo not shown)
Arrange the 3 compounds from largest to smallest IC50. Write the labels out in the order the request specifies. b, a, c

A: CC(=O)N1CCC(Oc2ccc(C(=O)NCc3ccc4nccn4c3)cc2)CC1
B: Cc1cc(CC(=O)N(C[C@H]2CCCO2)c2ncc(C(=O)NCc3ccn4ccnc4c3)s2)no1
C: O=C(NCc1ccn2ccnc2c1)c1ccc(C2CCN(C(=O)c3ccccn3)CC2)cc1
rank_up(items): orders items by reported IC50 in ascending numerical order. Could you list the labels in the order requested? C, B, A

A: O=C(Nc1ccc(C(=O)Nc2ccccc2)cc1)Nc1ccc2nccn2c1
B: CC[C@@H](O)Cn1cc(-c2ccc(C(=O)NCc3ccc4nccn4c3)s2)cn1
Parameter check: reported IC50 is higher for which label, A or B ? Return value: the label identifying the chosen record. A
(A: 921 pM, B: 266 pM)

* * *

Biological target: NAMPT (Homo sapiens)
Sequence (P43490 whole entry): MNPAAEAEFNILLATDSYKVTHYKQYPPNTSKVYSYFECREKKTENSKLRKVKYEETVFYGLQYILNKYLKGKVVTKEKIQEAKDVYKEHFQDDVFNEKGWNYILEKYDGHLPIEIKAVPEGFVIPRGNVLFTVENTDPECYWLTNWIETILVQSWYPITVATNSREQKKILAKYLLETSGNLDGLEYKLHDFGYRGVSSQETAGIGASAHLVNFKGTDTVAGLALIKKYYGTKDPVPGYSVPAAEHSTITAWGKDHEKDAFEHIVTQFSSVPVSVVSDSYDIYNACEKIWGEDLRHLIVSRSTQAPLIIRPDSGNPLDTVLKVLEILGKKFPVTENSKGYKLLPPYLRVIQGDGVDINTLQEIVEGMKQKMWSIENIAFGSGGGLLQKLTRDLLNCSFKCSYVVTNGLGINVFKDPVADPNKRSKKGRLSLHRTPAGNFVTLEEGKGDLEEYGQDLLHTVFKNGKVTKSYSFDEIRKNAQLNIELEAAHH
pIC50: −log10 of the molar value.
measurementKind: pIC50

Some solved entries appear below for comparison.
INSERT INTO assay_data (molecule, measurementkind, result) VALUES
  ('CC(C)C(=O)N1CCC(O)(c2ccc(C(=O)NCc3ccn4ccnc4c3)s2)CC1', 'pIC50', 9.08),
  ('O=C(CC1CCCC1)Nc1ccc(NC(=O)NCc2ccn3ccnc3c2)cc1', 'pIC50', 9.63),
  ('CCCn1cc(-c2ccc(NC(=O)NCc3ccc4nccn4c3)cc2)cn1', 'pIC50', 9.14);

I: COCCNC(=O)N(CC1CCOC1)c1ncc(C(=O)NCc2ccc3nccn3c2)s1 (stereo not drawn)
II: O=C(NCc1ccn2ccnc2c1)c1ccc(C(=O)N2CCCCC2)cc1
III: CC(C)(C)OC(=O)N1CCC(Oc2ccc(C(=O)NCc3ccn4ccnc4c3)cc2)CC1
Rank items: key pIC50, increasing. List the labels, following the order given in the request. II, I, III
(II: 6.67, I: 9.12, III: 9.77)

* * *

Molecular target: NAMPT (human, recombinant, C-terminally His-tagged) (Homo sapiens, UniProt P43490)
Experiment: Time-Resolved Fluorescence Resonance Energy Transfer (TR-FRET) Binding Assay of NAMPT
Conditions: without substrates; 6.8 nM NAMPT, 200 nM probe, 3 hours equilibration
measurementKind: IC50 (µM)

INSERT INTO results (compound, result) VALUES
  ('Cn1cccc1CCC(=O)N(C[C@H]1CCCO1)c1ncc(C(=O)NCc2ccn3ccnc3c2)s1 [Example 203]', 0.0137);

P: COc1ccc(C(=O)N2CC(c3ccc(C(=O)NCc4ccn5ccnc5c4)cc3)C2)cc1 [Example 655]
Q: O=C(NCc1ccn2ccnc2c1)Nc1ccc(C2=CCN(C(=O)c3ccccc3)CC2)cc1F [Example 438]
Which of the two items, P and Q , has the greater recorded IC50? State your choice using its label. P
(P: 0.23 µM, Q: 0.145 µM)

P: O=C(NCc1ccn2ccnc2c1)Nc1ccc(OC2CN(C(=O)C3CCOCC3)C2)cc1 [Example 433]
Q: CC(C)CCC(=O)Nc1ccc(NC(=O)NCc2ccn3ccnc3c2)cc1 [Example 280]
From the items above, decide which of P and Q has the lower IC50 reading. Indicate which entry you chose by stating its label. Q
(Q: 0.0113 µM, P: 0.2 µM)

I: O=C(CC1CCCO1)Nc1ccc(NC(=O)NCc2ccn3ccnc3c2)cc1 (stereo not drawn) [Example 283]
II: CC(C)(O)Cn1cc(-c2ccc(C(=O)NCc3ccn4ccnc4c3)s2)cn1 [Example 182]
III: O=C(NCc1ccn2ccnc2c1)c1ccc(C2CCN(C(=O)c3ccc(OC(F)(F)F)cc3)CC2)cc1 [Example 704]
Rank order required: IC50, descending. Write the labels, ordered according to the request. III, II, I

P: CC(C)CC(=O)N1CCC(c2ccc(C(=O)NCc3ccn4ccnc4c3)cc2)C1 (stereo not drawn) [Example 601]
Q: CC(C)(C)OC(=O)N1CCC(c2ccc(NC(=O)NCc3cn4ccnc4cn3)cc2)CC1 [Example 680]
Min IC50? P | Q Lab note: record the label of whichever item you select. Q
(Q: 0.0371 µM, P: 0.712 µM)

* * *

Biological target: NAMPT (human, recombinant, C-terminally His-tagged) (Homo sapiens, UniProt P43490)
Test: Time-Resolved Fluorescence Resonance Energy Transfer (TR-FRET) Binding Assay of NAMPT
Details: without substrates; 6.8 nM NAMPT, 200 nM probe, 3 hours equilibration
pIC50: −log10 of the molar value.
measurementKind: pIC50

INSERT INTO results (molecule, measurementkind, result) VALUES
  ('O=C(NCc1ccn2ccnc2c1)c1ccc(C2CCN(C(=O)c3cccs3)C2)cc1 (stereo not shown) [Example 488]', 'pIC50', 6.86),
  ('O=C(NCc1ccc2ncnn2c1)c1ccc(-c2cnn(CC3COCCO3)c2)s1 (stereo not shown) [Example 676]', 'pIC50', 6.90),
  ('O=C(CC1CCOCC1)Nc1ccc(NC(=O)NCc2ccc3nccn3c2)cc1 [Example 278]', 'pIC50', 6.99),
  ('O=C(CC1CCCO1)Nc1ccc(NC(=O)NCc2ccc3nccn3c2)cc1 (stereo not shown) [Example 277]', 'pIC50', 6.99);

* * *

Molecular target: NAMPT (human, recombinant, C-terminally His-tagged) (Homo sapiens, UniProt P43490)
Experiment: Time-Resolved Fluorescence Resonance Energy Transfer (TR-FRET) Binding Assay of NAMPT
Settings: without substrates; 6.8 nM NAMPT, 200 nM probe, 3 hours equilibration
pIC50: −log10 of the molar value.
measurementKind: pIC50

INSERT INTO measurements (compound, measurementkind, result) VALUES
  ('O=C(NCc1ccn2ccnc2c1)c1ccc(C2CN(C(=O)c3cccs3)C2)cc1 [Example 552]', 'pIC50', 6.74),
  ('O=C(CC1CCCC1)Nc1ccc(C(=O)NCc2ccn3ccnc3c2)c(F)c1 [Example 463]', 'pIC50', 6.50),
  ('O=C(NCc1ccn2ccnc2c1)Nc1ccc(OC2CCN(C(=O)c3cccc(F)c3)CC2)cc1 [Example 726]', 'pIC50', 6.60),
  ('O=C(NCc1ccc2nccn2c1)c1ccc(OC2CCN(C(=O)CC3CC3)CC2)cc1 [Example 172]', 'pIC50', 5.66),
  ('CC(C)OCC(=O)N1CC(Oc2ccc(NC(=O)NCc3ccn4ccnc4c3)cc2)C1 [Example 429]', 'pIC50', 6.89),
  ('Cc1nc(CC(=O)N(CC2CCCO2)c2ncc(C(=O)NCc3ccc4nccn4c3)s2)cs1 (stereo not drawn) [Example 124]', 'pIC50', 5.96);

A: CC(C)(C)Cn1cc(-c2ccc(C(=O)NCc3ccn4ccnc4c3)o2)cn1 [Example 825]
B: CC(C)C(=O)N1CCC(Oc2ccc(C(=O)NCc3ccn4ccnc4c3)cc2)CC1 [Example 412]
C: CC(C)CCC(=O)Nc1ccc(NC(=O)Nc2ccc3nccn3c2)cc1 [Example 47]
D: O=C(CN1CCOCC1)Nc1ccc(C(=O)NCc2ccc3nccn3c2)cc1 [Example 80]
Please list the entries, largest pIC50 first. Put the labels in the order asked and list them. A, C, D, B
